TARGET_SYSTEM: Glutathione peroxidase 1 (Homo sapiens) (UniProt P07203)
Sequence (P07203 whole entry, looked up): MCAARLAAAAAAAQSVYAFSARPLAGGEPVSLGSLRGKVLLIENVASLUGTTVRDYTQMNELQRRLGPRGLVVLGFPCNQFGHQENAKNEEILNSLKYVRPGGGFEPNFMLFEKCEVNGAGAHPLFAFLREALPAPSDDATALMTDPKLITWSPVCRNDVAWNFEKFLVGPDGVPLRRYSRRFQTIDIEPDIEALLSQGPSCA
PROTOCOL_TEXT: Primary qHTS Assay for Inhibitors of Recombinant Selenoprotein Glutathione Peroxidase 1 (GPX1) (AID 1845191); note: nearly all actives have a fitted effect of over 65% in size
SETTINGS: recombinant GPX1, GR-coupled NADPH fluorescence, 15 min; series mostly up to 27.7 µM
Records with an inconclusive call do not appear. Activity calls are given as the source filed them. Calls come from the whole dose curve; as a rule, active = well fitted inhibition curve with a large enough effect; inconclusive = small, poorly fitted or top-dose-only effect; inactive = flat fitted curve, though single readings scatter.
METRIC: outcome

Query string: Return outcome for the following molecule: C=C1C(=O)OC[C@H]2C(C(=O)O)=CC3CC(C)(C)C[C@@]132 (stereo partly drawn)
Result string: inactive

Query string: Output measured outcome for this item: COc1c2cc(c(O)c1OC)CCCCC(O)CCc1ccc(O)c-2c1 (stereo not drawn)
Result string: inactive

Query string: Report measured outcome; entry is COc1ccc(CCc2nc3cc(-c4c(C)noc4C)ccc3n2C[C@H](C)N2CCOCC2)cc1Cl
Result string: inactive

Query string: Check the records and state outcome for CC(C)[C@@](O)(c1ccc2cc(OC(F)F)c(OC(F)F)cc2c1)c1cn[nH]n1
Result string: inactive

Query string: Indicate the recorded outcome value for this molecule: CC/C=C\[C@H](O)[C@H](O)C1=C(C)C(=O)[C@]2(O1)C(=O)N[C@@](O)(C(=O)c1ccccc1)[C@@H]2O
Result string: inactive

Report outcome for every entry below.
1. O=C(/C=C/c1ccc(O)c(O)c1)O[C@H]1[C@H](OC2CCCCC2O)O[C@H](CO)[C@@H](O)[C@@H]1O (stereo partly drawn)
2. C=CC(C)(CC/C=C(\C)C(=O)OC)OC1OC(COC(=O)CC(C)(O)CC(=O)O)C(O)C(O)C1O (stereo not drawn)
3. CC(C)(O)[C@@H]1CC[C@]2(CO)[C@@H](O)CC[C@](C)(O)[C@H]2[C@@H]1O[C@@H]1O[C@H](CO)[C@@H](O)[C@H](O)[C@H]1O

Result string:
1. inactive
2. inactive
3. inactive

* * *

Test system: CRL-7250
PROTOCOL_TEXT: Cytotoxic Profiling of Annotated Libraries Using Quantitative High-Throughput Screening (AID 1296008); note: % is set by controls: 0 for no effect and ±100 for the full control effect; nearly all actives have a fitted effect of over 60% in size
SETTINGS: Five cell lines viability, CellTiter-Glo ATP luminescence, 48-72 h; stronger effect = lower value
Results filed as inconclusive are left out.
METRIC: max response (%)
Answers are plain numbers, in %.

Solved entries (count: 5):
Query string: Report max response for C=C(C(=O)O)[C@@H]1CC[C@@]2(C)CCC[C@@](C)(O)[C@@H]2C1
Result string: -2.07

Query string: Determine from records and report max response for C=C1C2CCC3C(CCC4[C@@]3(C)CCC[C@@]4(C)C(=O)O)(C2)[C@@H]1OC(=O)/C(C)=C\C (stereo partly drawn)
Result string: -44.5

Query string: Identify measured max response associated with COc1ccc(-c2ccn(CC[C@](C)(C(=O)NO)S(C)(=O)=O)c(=O)c2)c(F)c1
Result string: 2.02

Query string: Supply reported max response belonging to this compound: Cc1onc(-c2c(Cl)cccc2Cl)c1CC(=O)NCc1ccc(OCC(F)(F)F)nc1
Result string: 0.479

Query string: Read off the recorded max response for COc1cc(CO)cc(OC)c1O[C@@H]1O[C@H](CO)[C@@H](O)[C@H](O)[C@H]1O
Result string: -11.4

For each of the items listed, what is its max response?
1. COC(=O)/C=C/c1ccc(O[C@@H]2O[C@H](CO)[C@@H](O)[C@H](O)[C@H]2O)cc1
2. CC(=O)OC(C)C(C)(O)C(=O)O[C@@H]1CC[C@]2(C)CC(=O)C(=C(C)C)C[C@H]2[C@]1(C)OC(C)=O (stereo partly drawn)
3. CC[C@@H]1[C@H]2CCCCN3C(=O)C[C@H]([C@@H]4[C@H]1OC(=O)[C@H]4C)[C@@H]23

Result string:
1. -1.55
2. -0.377
3. -4.41
